# subject.of.test: 5-HT2A receptor (Homo sapiens)
# Construct: alternatively human cortex tissue
# Sequence (P28223 whole entry): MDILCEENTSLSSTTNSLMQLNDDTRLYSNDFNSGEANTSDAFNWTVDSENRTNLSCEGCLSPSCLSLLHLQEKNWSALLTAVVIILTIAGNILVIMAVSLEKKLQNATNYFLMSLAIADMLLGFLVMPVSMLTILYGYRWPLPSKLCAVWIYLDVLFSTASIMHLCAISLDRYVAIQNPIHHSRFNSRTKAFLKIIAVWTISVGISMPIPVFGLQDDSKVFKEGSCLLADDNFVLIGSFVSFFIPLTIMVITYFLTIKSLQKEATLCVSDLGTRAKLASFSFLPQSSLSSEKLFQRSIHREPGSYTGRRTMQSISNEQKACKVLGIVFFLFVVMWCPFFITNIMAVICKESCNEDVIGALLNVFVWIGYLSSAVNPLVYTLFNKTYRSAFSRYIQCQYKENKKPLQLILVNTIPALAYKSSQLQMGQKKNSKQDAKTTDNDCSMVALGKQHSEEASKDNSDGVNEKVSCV
# test.protocol: radioligand binding assay for 5-HT2A receptor ([3H]-ketanserin)
# test.context: human cortex or recombinant 5-HT2A receptor expressed in CHO-K1 cells, read-out: binding affinity to 5-HT2A serotonin receptor, Ki value
pKi: −log10 of the molar value.
parameter: pKi

Consider the worked cases shown below.
test.smiles: CN(C)CCCOCc1c2c(nn1CCc1ccccc1)-c1ccccc1Sc1ccccc1-2
subject.of.test: 5-HT2A receptor (Homo sapiens)
pKi: > 7.00
//
test.smiles: CN(C)CCCOCc1n[nH]c2c1-c1ccccc1Sc1ccccc1-2
subject.of.test: 5-HT2A receptor (Homo sapiens)
pKi: > 7.00

Now examine the next entry.
Qu. What measured pKi goes with "CN(C)CCOCc1n[nH]c2c1-c1ccccc1Oc1ccc(Cl)cc1-2" ?
Ans. > 7.00
